# assayed.system: T1, peptide EISQEVRGAVFPSY (SEQ ID NO:76), N-terminally biotinylated (human)
# T1 peptide: Biotin-EISQEVRGAVFPSY
# protocol.text: ELISA, biotin-peptide on neutravidin plate, antibody 1 ug/ml
Ends that are not written are not given here. * marks the point of attachment. Biotin = O=C1N[C@H]2[C@H](CS[C@H]2CCCCC(=O)*)N1
Binary label based on absorbance 450 nm minus 540 nm with cut-off 0.02 absorbance: below gives 1, not below gives 0.

{"binder": "anti-lactadherin antibody 399A12 (antibody, V domains shown, Murine monoclonal, kappa light chain; Variable regions identical to those of 416H9; also called hybridoma 399A12; LMBP 9491CB) VH: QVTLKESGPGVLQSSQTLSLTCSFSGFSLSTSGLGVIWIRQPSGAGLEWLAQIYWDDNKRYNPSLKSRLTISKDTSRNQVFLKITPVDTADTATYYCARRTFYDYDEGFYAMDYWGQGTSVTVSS VL: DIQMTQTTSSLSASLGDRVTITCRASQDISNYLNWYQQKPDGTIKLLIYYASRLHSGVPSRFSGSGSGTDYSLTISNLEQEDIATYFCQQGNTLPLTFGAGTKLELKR", "label.class": 0}
{"binder": "huMc3 antibody (antibody, V domains shown) VH: EVQLVQSGAEVKKPGASVKVSCKASGYSFTGYTMHWVKQSPGMNLEWIGLINPYNGGTVYNQKFQDKATLTVDKSTSTAYMELSSLRSEDTAVYFCARRWRYTMDYWGQGTLVTVSS VL: DIVMTQSPDSLAVSLGERATITCKASQDVSIGVAWYQQKPGQSPKLLIYSASSRYTGVPDRFSGSGSGTDFTLTISSLQAEDVAVYYCQQHYTSPFTFGSGTKVEIK", "label.class": 0}
{"binder": "anti-lactadherin antibody 215A9 (antibody, IgG1, V domains shown, also called 2154A9; hybridoma 215A9) VH: QVSLKESGPGILQSSQTLSLTCSFSGFSLSTSGMGVSWIRQPSGKGLEWLAHIYWNDDKRYNPSLKSRLTISKDTSRDQVFLKITSVDTADTATYFCARRPRFYRDYDEGIDFWGQGTTLTVSS VL: QAVVTQESALTTSPGETVTLTCRSSTGAVTTNNYANWVQEKPDHLFTGLIGGTNNRTPGVPARFSGSLIGDKAALTITGAQTEDEAIYFCALWYSNLWVFGGGTKLTVLG", "label.class": 0}
{"binder": "anti-lactadherin antibody 311A7 (antibody, IgG1, V domains shown, also called murine 311A7; hybridoma 311A7) VH: EFQLQQSGPELVKPGASVRISCKASGYSFTDYNMNWVKQSDGKTLEWIGVINPDYGTTNNNQRFRGKATLTLDLSSSTAYMQLNSLTSEDSAVYYCARGGDYGAGYALDYWGQGTSVTVSS VL: QIVLTQSPAIMSASPGEKVTITCSASSSVSYMYWFQQKPGTSPKLWIYSTSNLASGVPARFSGSGSGTSYSLTISRMEAEDAATYYCQQRSSYPRTFGGGTKLEIKR", "label.class": 1}
